Assay System: VIM-1 (Pseudomonas aeruginosa)
Experiment Notes: biochemical
Assay type: biochemical
Experimental Conditions: 300 μM imipenem, 10 mM HEPES pH 7.5, 25 °C; average of at least two independent assays; read-out: VIM-1 IC50
pIC50: −log10 of the molar value.
Below is a list of entries, each paired with its recorded pIC50 value.

Consider the worked cases shown below.
O=C(O)c1ncccc1NS(=O)(=O)c1ccccc1Cl [Compound 34] :: < 3.70
CS(=O)(=O)c1ccc(S(=O)(=O)Nc2cccnc2C(=O)O)cc1 [Compound 30] :: < 3.70
O=C(Cc1ccccc1)Nc1ccc(C(=O)O)nc1 [Compound 56] :: < 3.70
O=C(O)c1ncccc1NS(=O)(=O)Cc1ccccc1Cl [Compound 39] :: 4.96
COc1cccc(CC(=O)Nc2ccnc(C(=O)O)c2)c1 [Compound 50] :: < 3.70
CCCCC(=O)Nc1ccnc(C(=O)O)c1 [Compound 51] :: < 3.70
O=C(Cc1cccs1)Nc1ccnc(C(=O)O)c1 [Compound 53] :: < 3.70
O=C(O)c1ncccc1NS(=O)(=O)Cc1ccc(Cl)cc1 [Compound 42] :: 4.05
O=C(O)c1ccc(NS(=O)(=O)Cc2ccccc2)cn1 [Compound 58] :: < 3.70

Proceed to the following item.
Report pIC50 for O=C(O)c1cc(NS(=O)(=O)Cc2ccccc2)ccn1 [Compound 54] tested on VIM-1 (Pseudomonas aeruginosa). < 3.70
